tested on: Colo205; test: Proliferation inhibition test, Wnt mutant cell line Colo205; format: cell-based; conditions: Homo sapiens, COLO 205, 96 h, Colo205, 96 h culture with compound; read-out: Antiproliferation IC50 Colo205
readout_type: IC50 (nM)

[A] [2H]C([2H])([2H])N1c2nc(NCc3ccc(Oc4ccc(C(F)(F)F)nc4F)nc3)nc3c2N(CCC3)C(=O)[C@@H]1CO
[B] Cc1nc(C(F)(F)F)ncc1Oc1ccc(CNc2nc3c4c(n2)N(C)[C@@H]([C@@H](C)O)C(=O)N4CCC3)cn1
[C] [2H]C([2H])([2H])N1c2nc(NCc3ccc(Oc4ccc(C(F)(F)F)nc4Cl)nc3)nc3c2N(CCC3)C(=O)[C@]1(C)CO
[D] [2H]C([2H])([2H])N1c2nc(NCc3ccc(Oc4cnc(C(F)(F)F)nc4C4CC4)nc3)nc3c2N(CCC3)C(=O)[C@@H]1CO
[E] CN(C)c1nc(C(F)(F)F)ccc1Oc1ccc(CNc2nc3c4c(n2)N(C)[C@@](C)(CO)C(=O)N4CCC3)cn1
Problem: Ascending by IC50, please: list the compounds accordingly. Kindly provide the labels arranged according to the requested ordering.
Result: E, C, D, A, B

[I] [2H]C([2H])([2H])N1c2nc(NCc3ccc(Oc4cnc(C(F)(F)F)nc4C)nc3)nc3c2N(CCC3)C(=O)[C@]1(C)CO
[II] CN1c2nc(NCc3ccc(Oc4ccc(C(F)(F)F)nc4Cl)nc3)nc3c2N(CCC3)C(=O)[C@@H]1CO
Problem: Between I and II , which one shows the smaller IC50 number? # reply format: chosen label
Result: II
(II: 8.67 nM, I: 20.6 nM)

---

system: DU4475; assay: Proliferation inhibition test, Wnt mutant cell line DU4475; type: cell-based; details: Homo sapiens, DU-4475, 96 h, DU4475, 96 h culture with compound; read-out: Antiproliferation IC50 DU4475
readout_type: IC50 (nM)
Dear colleague, please return just the value in nM, with no unit written.

# example entries with known answers
{"chemical_smiles": "CN1c2nc(NCc3ccc(Oc4ccc(C(F)(F)F)nc4F)nc3)nc3c2N(CCC3)C(=O)[C@@H]1CO", "experimental_system": "DU4475", "reading_unit": "nM", "numeric_result": 12.1}
{"chemical_smiles": "Cc1nc(C(F)(F)F)ncc1Oc1ccc(CNc2nc3c4c(n2)N(C)[C@@H]([C@H](C)O)C(=O)N4CCC3)cn1", "experimental_system": "DU4475", "reading_unit": "nM", "numeric_result": 15.9}
{"chemical_smiles": "[2H]C([2H])([2H])N1c2nc(NCc3ccc(Oc4ccc(C(F)(F)F)nc4Cl)nc3)nc3c2N(CCC3)C(=O)[C@]1(C)CO", "experimental_system": "DU4475", "reading_unit": "nM", "numeric_result": 3.06}
{"chemical_smiles": "[2H]C([2H])([2H])N1c2nc(NCc3ccc(Oc4ccc(C(F)(F)F)nc4Br)nc3)nc3c2N(CCC3)C(=O)[C@]1(C)CO", "experimental_system": "DU4475", "reading_unit": "nM", "numeric_result": 0.82}
{"chemical_smiles": "[2H]C([2H])([2H])N1c2nc(NCc3ccc(Oc4cnc(C(F)(F)F)nc4CC)nc3)nc3c2N(CCC3)C(=O)[C@@H]1CO", "experimental_system": "DU4475", "reading_unit": "nM", "numeric_result": 9.6}

Here is the next item to consider.
Problem: // IC50 lookup, key: `[2H]C([2H])([2H])N1c2nc(NCc3ccc(Oc4cnc(C(F)(F)F)nc4C)nc3)nc3c2N(CCC3)C(=O)[C@@H]1CO`
Result: 25.8

---

system: Colo205-LUC-TCF/LEF reporter gene; test: Colo205-LUC-TCF/LEF M1 reporter cell line luciferase inhibition; assay type: cell-based; conditions: 4 h, 4 hours incubation, firefly luciferase signal
readout_type: IC50 (µM)

# example entries with known answers
{"chemical_smiles": "CN1c2nc(NCc3ccc(Oc4ccc(C(F)(F)F)nc4F)nc3)nc3c2N(CCC3)C(=O)[C@@H]1CO", "IC50 [µM]": 0.0438}
{"chemical_smiles": "[2H]C([2H])([2H])N1c2nc(NCc3ccc(Oc4ccc(C(F)(F)F)nc4F)nc3)nc3c2N(CCC3)C(=O)[C@@H]1CO", "IC50 [µM]": 0.0307}

[1] Cc1nc(C(F)(F)F)ncc1Oc1ccc(CNc2nc3c4c(n2)N(C)[C@@H]([C@H](C)O)C(=O)N4CCC3)cn1
[2] Cc1nc(C(F)(F)F)ncc1Oc1ncc(CNc2nc3c4c(n2)N(C)[C@@](C)(CO)C(=O)N4CCC3)cc1F
Problem: Please state the entry with greater IC50 among 1 and 2 . # reply format: chosen label
Result: 1
(1: 0.0694 µM, 2: 0.0274 µM)

[P] [2H]C([2H])([2H])N1c2nc(NCc3ccc(Oc4cnc(C(F)(F)F)nc4CC)nc3)nc3c2N(CCC3)C(=O)[C@@H]1CO
[Q] [2H]C([2H])([2H])N1c2nc(NCc3ccc(Oc4cnc(C(F)(F)F)nc4C4CC4)nc3)nc3c2N(CCC3)C(=O)[C@]1(C)CO
[R] [2H]C([2H])([2H])N1c2nc(NCc3ccc(Oc4cnc(C(F)(F)F)nc4C4CC4)nc3)nc3c2N(CCC3)C(=O)[C@@H]1CO
Problem: Falling order of IC50, please. Kindly provide the labels arranged according to the requested ordering.
Result: P, R, Q

---

IC50 overview
test system: DU4475; test: Proliferation inhibition test, Wnt mutant cell line DU4475; assay type: cell-based; details: Homo sapiens, DU-4475, 96 h, DU4475, 96 h culture with compound; read-out: Antiproliferation IC50 DU4475
Dear colleague, please return just the value in nM, with no unit written.

# example entries with known answers
{"compound": "CN1c2nc(NCc3ccc(Oc4ccc(C(F)(F)F)nc4N4CC(F)(F)C4)nc3)nc3c2N(CCC3)C(=O)[C@]1(C)CO [Compound 21]", "experimental_system": "DU4475", "numeric_result": 4.83}
{"compound": "CN1c2nc(NCc3ccc(Oc4ccc(C(F)(F)F)nc4N4CCCC4)nc3)nc3c2N(CCC3)C(=O)[C@]1(C)CO [Compound 13]", "experimental_system": "DU4475", "numeric_result": 1.58}
{"compound": "CN1c2nc(NCc3ccc(Oc4ccc(C(F)(F)F)nc4Cl)nc3)nc3c2N(CCC3)C(=O)[C@@H]1CO [Compound 2]", "experimental_system": "DU4475", "numeric_result": 5.05}

Here is the next item to consider.
Problem: // IC50 lookup, key: [2H]C([2H])([2H])N1c2nc(NCc3ccc(Oc4cnc(C(F)(F)F)nc4C)nc3)nc3c2N(CCC3)C(=O)[C@]1(C)CO [Compound 5]
Result: 14.4

---

tested on: Colo205; experiment: Proliferation inhibition test, Wnt mutant cell line Colo205; type: cell-based; conditions: Homo sapiens, COLO 205, 96 h, Colo205, 96 h culture with compound; read-out: Antiproliferation IC50 Colo205
readout_type: IC50 (nM)

# example entries with known answers
{"chemical_smiles": "[2H]C([2H])([2H])N1c2nc(NCc3ccc(Oc4cnc(C(F)(F)F)nc4C)nc3)nc3c2N(CCC3)C(=O)[C@@H]1[C@@H](C)O", "numeric_result": 46.5}
{"chemical_smiles": "[2H]C([2H])([2H])N1c2nc(NCc3ccc(Oc4ccc(C(F)(F)F)nc4Cl)nc3)nc3c2N(CCC3)C(=O)[C@@H]1CO", "numeric_result": 7.81}
{"chemical_smiles": "CN1c2nc(NCc3ccc(Oc4ccc(C(F)(F)F)nc4N4CCCC4)nc3)nc3c2N(CCC3)C(=O)[C@]1(C)CO", "numeric_result": 11.5}

[a] CN1c2nc(NCc3ccc(Oc4ccc(C(F)(F)F)nc4F)nc3)nc3c2N(CCC3)C(=O)[C@@H]1CO
[b] [2H]C([2H])([2H])N1c2nc(NCc3ccc(Oc4cnc(C(F)(F)F)nc4C)nc3)nc3c2N(CCC3)C(=O)[C@@H]1CO
Problem: Please state the entry with greater IC50 among a and b . # reply format: chosen label
Result: b
(b: 42.6 nM, a: 18.9 nM)

[I] Cc1nc(C(F)(F)F)ncc1Oc1ncc(CNc2nc3c4c(n2)N(C)[C@@](C)(CO)C(=O)N4CCC3)cc1F
[II] [2H]C([2H])([2H])N1c2nc(NCc3ccc(Oc4cnc(C(F)(F)F)nc4CC)nc3)nc3c2N(CCC3)C(=O)[C@]1(C)CO
[III] Cc1nc(C(F)(F)F)ncc1Oc1ccc(CNc2nc3c4c(n2)N(C)[C@@H]([C@H](C)O)C(=O)N4CCC3)cn1
Problem: Form: Sort by [IC50] Order [ ascending ] Kindly provide the labels arranged according to the requested ordering.
Result: II, I, III

[1] [2H]C([2H])([2H])N1c2nc(NCc3ccc(Oc4ccc(C(F)(F)F)nc4F)nc3)nc3c2N(CCC3)C(=O)[C@]1(C)CO
[2] [2H]C([2H])([2H])N1c2nc(NCc3ccc(Oc4cnc(C(F)(F)F)nc4C4CC4)nc3)nc3c2N(CCC3)C(=O)[C@]1(C)CO
Problem: Between 1 and 2 , which one shows the smaller IC50 number? # reply format: chosen label
Result: 2
(2: 2.34 nM, 1: 7.43 nM)

Measured values drawn from patent US20250163062A1 for this set.
